- protocol-text: Plasma stability at 37° C., human plasma
- Type: in vitro ADME
- measurement-context: Table 5, read-out: Plasma half-life Man
Where no end group is shown, it is not given here.
value-kind: half-life

half-life reading for H-SELPAGHGLNVNTLSYGDLAAD [SEQ ID NO: 4] : > 6 h

###

- protocol-text: Plasma stability at 37° C., mouse plasma
- Assay type: in vitro ADME
- measurement-context: Table 7, same conditions as Example 3, read-out: Plasma half life Mouse
value-kind: half-life (min)
# number only, unit min dropped from output

CC(C)C[C@H](NC(=O)CNC(=O)[C@H](N)Cc1c[nH]cn1)C(=O)N[C@@H](CC(N)=O)C(=O)N[C@H](C(=O)N[C@@H](CC(N)=O)C(=O)N[C@H](C(=O)N[C@@H](CC(C)C)C(=O)N[C@@H](CO)C(=O)N[C@@H](Cc1ccc(O)cc1)C(=O)NCC(=O)N[C@H](CC(=O)O)C(N)=O)[C@@H](C)O)C(C)C [SEQ ID NO: 14, hGLNVNTLSYGd-NH2]; 50

half-life reading for CC(C)C[C@@H]1NC(=O)CNC(=O)[C@H](Cc2c[nH]cn2)NC(=O)[C@H](CC(=O)O)NC(=O)CNC(=O)[C@H](Cc2ccc(O)cc2)NC(=O)[C@H](CO)NC(=O)[C@H](CC(C)C)NC(=O)[C@H]([C@@H](C)O)NC(=O)[C@H](CC(N)=O)NC(=O)[C@H](C(C)C)NC(=O)[C@H](CC(N)=O)NC1=O [SEQ ID NO: 25, cyclic-HGLNVNTLSYGD-] : 10

###

- protocol-text: Plasma stability at 37° C., rat plasma
- Format: in vitro ADME
- measurement-context: Table 3, 37° C., peptide 3 μM, read-out: Plasma Half Life (Th) Rat
- Method: Plasma Stability in Mouse, Rat and Human Plasma at 37° C. Plasma: mouse (C57 Black 6 Male), rat (Sprague Dawley) and human containing heparin as an anti-coagulant. Plasma samples in duplicate were incubated with peptide at 3 μM in a 600 μl volume at 37° C. with shaking. 50 μl aliquots were withdrawn after 2, 5, 30, 60 and 120 mins and quenched into 150 μl of ice-cold methanol containing the internal standard (tolbutamide). […] Thalf was calculated in all matrices for each peptide.
value-kind: half-life (min)
# number only, unit min dropped from output

half-life reading for "CC(C)C[C@H](NC(=O)CNC(=O)[C@@H](N)Cc1c[nH]cn1)C(=O)N[C@@H](CC(N)=O)C(=O)N[C@H](C(=O)N[C@@H](CC(N)=O)C(=O)N[C@H](C(=O)N[C@@H](CC(C)C)C(=O)N[C@@H](CO)C(=O)N[C@@H](Cc1ccc(O)cc1)C(=O)NCC(=O)N[C@@H](CC(=O)O)C(N)=O)[C@@H](C)O)C(C)C" : 43

###

Documented half-life across a set of compounds
- protocol-text: Plasma stability at 37° C., human plasma
- Format: in vitro ADME
- measurement-context: Table 7, same conditions as Example 3, read-out: Plasma half life Man

# count of solved cases: 2
CC(=O)N[C@H](CC(=O)O)C(=O)NCC(=O)N[C@H](Cc1ccc(O)cc1)C(=O)N[C@H](CO)C(=O)N[C@H](CC(C)C)C(=O)N[C@@H](C(=O)N[C@H](CC(N)=O)C(=O)N[C@@H](C(=O)N[C@H](CC(N)=O)C(=O)N[C@H](CC(C)C)C(=O)NCC(=O)N[C@H](Cc1c[nH]cn1)C(N)=O)C(C)C)[C@H](C)O; > 6 h
CC(C)C[C@H](NC(=O)CNC(=O)[C@H](N)Cc1c[nH]cn1)C(=O)N[C@@H](CC(N)=O)C(=O)N[C@H](C(=O)N[C@@H](CC(N)=O)C(=O)N[C@H](C(=O)N[C@@H](CC(C)C)C(=O)N[C@@H](CO)C(=O)N[C@@H](Cc1ccc(O)cc1)C(=O)NCC(=O)N[C@H](CC(=O)O)C(N)=O)[C@@H](C)O)C(C)C; 2.58 h

Now look at this one.
half-life reading for "CC(=O)N[C@H](Cc1c[nH]cn1)C(=O)NCC(=O)N[C@H](CC(C)C)C(=O)N[C@H](CC(N)=O)C(=O)N[C@@H](C(=O)N[C@H](CC(N)=O)C(=O)N[C@@H](C(=O)N[C@H](CC(C)C)C(=O)N[C@H](CO)C(=O)N[C@H](Cc1ccc(O)cc1)C(=O)NCC(=O)N[C@H](CC(=O)O)C(N)=O)[C@H](C)O)C(C)C" : > 6 h
